biological target: Human c-Met (human, UniProt P08581 25-1390); experiment: cell-based or functional assay
Sequence (P08581 25-1390 limits assumed): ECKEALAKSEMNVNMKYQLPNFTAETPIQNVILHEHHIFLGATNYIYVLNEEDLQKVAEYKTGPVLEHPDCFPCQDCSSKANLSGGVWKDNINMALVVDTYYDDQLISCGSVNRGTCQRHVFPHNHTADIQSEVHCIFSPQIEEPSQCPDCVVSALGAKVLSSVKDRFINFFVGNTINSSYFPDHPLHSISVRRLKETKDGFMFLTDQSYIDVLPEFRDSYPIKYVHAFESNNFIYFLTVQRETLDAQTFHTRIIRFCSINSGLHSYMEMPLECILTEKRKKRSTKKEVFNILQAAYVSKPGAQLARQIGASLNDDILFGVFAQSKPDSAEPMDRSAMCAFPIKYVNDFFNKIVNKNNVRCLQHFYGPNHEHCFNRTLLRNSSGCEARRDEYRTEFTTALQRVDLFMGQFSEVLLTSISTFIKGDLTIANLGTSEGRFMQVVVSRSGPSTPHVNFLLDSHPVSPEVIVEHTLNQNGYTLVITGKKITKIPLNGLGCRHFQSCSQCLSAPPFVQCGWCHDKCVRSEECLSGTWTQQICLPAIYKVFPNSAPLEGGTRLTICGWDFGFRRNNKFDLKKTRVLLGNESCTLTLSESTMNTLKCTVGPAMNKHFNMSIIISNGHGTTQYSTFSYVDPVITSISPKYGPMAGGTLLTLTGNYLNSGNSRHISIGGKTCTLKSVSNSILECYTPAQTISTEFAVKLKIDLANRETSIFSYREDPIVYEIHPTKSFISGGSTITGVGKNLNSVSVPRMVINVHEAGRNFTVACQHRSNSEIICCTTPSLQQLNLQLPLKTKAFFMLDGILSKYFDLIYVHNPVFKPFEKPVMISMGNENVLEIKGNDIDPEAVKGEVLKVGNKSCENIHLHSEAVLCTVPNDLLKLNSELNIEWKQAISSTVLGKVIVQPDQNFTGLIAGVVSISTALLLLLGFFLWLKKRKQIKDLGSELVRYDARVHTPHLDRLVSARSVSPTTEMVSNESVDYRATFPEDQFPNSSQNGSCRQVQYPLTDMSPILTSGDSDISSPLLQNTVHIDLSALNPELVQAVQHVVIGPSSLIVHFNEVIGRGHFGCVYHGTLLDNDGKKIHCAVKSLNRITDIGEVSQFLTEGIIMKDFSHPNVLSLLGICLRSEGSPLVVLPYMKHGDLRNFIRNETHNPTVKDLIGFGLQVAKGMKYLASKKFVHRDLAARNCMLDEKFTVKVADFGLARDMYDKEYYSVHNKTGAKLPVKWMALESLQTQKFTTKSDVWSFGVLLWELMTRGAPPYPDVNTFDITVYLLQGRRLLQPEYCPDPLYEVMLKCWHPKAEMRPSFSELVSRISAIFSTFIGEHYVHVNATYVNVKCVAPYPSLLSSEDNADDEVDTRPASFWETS
Give IC50, cell-based cMet phosphorylation assay for every item shown.
Quick note: number first, unit second.

*Q* Which measured IC50, cell-based cMet phosphorylation assay value corresponds to A007901253 (VHH, 33H10 variant, 3xFLAG-His6 tagged; the entry holds the tag) VHH: EVQLVESGGGLVQPGGSLRLSCAASGFTFDDYAIGWFRQAPGEEREGVSSISSTYGLTYYADPVKGRFTISSDNSKNTVYLQMNSLRPEDTAVYYCAATPIGLIGLDAYEYDYWGQGTLVTVSS ?
*A* 4.84 nM

*Q* Which measured IC50, cell-based cMet phosphorylation assay value corresponds to A007901252 (VHH, 33H10 variant, 3xFLAG-His6 tagged; the entry holds the tag) VHH: EVQLVESGGGLVQPGGSLRLSCAASGFAFDDYAIGWFRQAPGKERLGVSSISSTYGLTYYADSVKGRFTISSDNSKNTVYLQMNSLRPEDTAVYYCAATPIGLIGLDAYEYDYWGQGTLVTVSS ?
*A* 4.16 nM

*Q* Requested read-out: IC50, cell-based cMet phosphorylation assay. Entry: A007901248 (VHH, 33H10 variant, 3xFLAG-His6 tagged; the entry holds the tag) VHH: EVQLVESGGGLVQPGGSLRLSCAASGFAFDDYAIGWFRQAPGKEREGVSSISSTYGLTYYADSVKGRFTISSDNSKNTVYLQMNSLRPEDTAVYYCAATPIGLIGLDAYEYDYWGQGTLVTVSS
*A* 11.5 nM

*Q* Tell me the measured IC50, cell-based cMet phosphorylation assay of A007901246 (VHH, 33H10 variant, 3xFLAG-His6 tagged; the entry holds the tag; also called monovalent form of A007901256) VHH: EVQLVESGGGLVQPGGSLRLSCAASGFAFDDYAIGWFRQAPGEEREGVSSISSTYGLTYYADSVKGRFTISSDNSKNTVYLQMNSLRPEDTAVYYCAATPIGLIGLDAYEYDYWGQGTLVTVSS , please.
*A* 3.44 nM

*Q* // lookup IC50, cell-based cMet phosphorylation assay for A007900184 (33H10-3xFLAG-His6) (VHH, the entry holds the tag; also called A007900184 (wt)) VHH: EVQLVESGGGLVQAGGSLRLSCAASGFTFDDYAIGWFRQAPGEEREGVSSISSTYGLTYYADSVKGRFTISSSNAKNTVYLQMNNLKPEDTAVYYCAATPIERLGLDAYEYDYWGQGTLVTVSS
*A* 79 nM

*Q* Reported IC50, cell-based cMet phosphorylation assay for A007901249 (VHH, 33H10 variant, 3xFLAG-His6 tagged; the entry holds the tag; also called monovalent form of A007901259) VHH: EVQLVESGGGLVQPGGSLRLSCAASGFTFDDYAIGWFRQAPGEERLGVSSISSTYGLTYYADSVKGRFTISSDNSKNTVYLQMNSLRPEDTAVYYCAATPIGLIGLDAYEYDYWGQGTLVTVSS : what is it?
*A* 2.81 nM
